# tgt: P-gp (Homo sapiens)
# Sequence (P08183 whole entry): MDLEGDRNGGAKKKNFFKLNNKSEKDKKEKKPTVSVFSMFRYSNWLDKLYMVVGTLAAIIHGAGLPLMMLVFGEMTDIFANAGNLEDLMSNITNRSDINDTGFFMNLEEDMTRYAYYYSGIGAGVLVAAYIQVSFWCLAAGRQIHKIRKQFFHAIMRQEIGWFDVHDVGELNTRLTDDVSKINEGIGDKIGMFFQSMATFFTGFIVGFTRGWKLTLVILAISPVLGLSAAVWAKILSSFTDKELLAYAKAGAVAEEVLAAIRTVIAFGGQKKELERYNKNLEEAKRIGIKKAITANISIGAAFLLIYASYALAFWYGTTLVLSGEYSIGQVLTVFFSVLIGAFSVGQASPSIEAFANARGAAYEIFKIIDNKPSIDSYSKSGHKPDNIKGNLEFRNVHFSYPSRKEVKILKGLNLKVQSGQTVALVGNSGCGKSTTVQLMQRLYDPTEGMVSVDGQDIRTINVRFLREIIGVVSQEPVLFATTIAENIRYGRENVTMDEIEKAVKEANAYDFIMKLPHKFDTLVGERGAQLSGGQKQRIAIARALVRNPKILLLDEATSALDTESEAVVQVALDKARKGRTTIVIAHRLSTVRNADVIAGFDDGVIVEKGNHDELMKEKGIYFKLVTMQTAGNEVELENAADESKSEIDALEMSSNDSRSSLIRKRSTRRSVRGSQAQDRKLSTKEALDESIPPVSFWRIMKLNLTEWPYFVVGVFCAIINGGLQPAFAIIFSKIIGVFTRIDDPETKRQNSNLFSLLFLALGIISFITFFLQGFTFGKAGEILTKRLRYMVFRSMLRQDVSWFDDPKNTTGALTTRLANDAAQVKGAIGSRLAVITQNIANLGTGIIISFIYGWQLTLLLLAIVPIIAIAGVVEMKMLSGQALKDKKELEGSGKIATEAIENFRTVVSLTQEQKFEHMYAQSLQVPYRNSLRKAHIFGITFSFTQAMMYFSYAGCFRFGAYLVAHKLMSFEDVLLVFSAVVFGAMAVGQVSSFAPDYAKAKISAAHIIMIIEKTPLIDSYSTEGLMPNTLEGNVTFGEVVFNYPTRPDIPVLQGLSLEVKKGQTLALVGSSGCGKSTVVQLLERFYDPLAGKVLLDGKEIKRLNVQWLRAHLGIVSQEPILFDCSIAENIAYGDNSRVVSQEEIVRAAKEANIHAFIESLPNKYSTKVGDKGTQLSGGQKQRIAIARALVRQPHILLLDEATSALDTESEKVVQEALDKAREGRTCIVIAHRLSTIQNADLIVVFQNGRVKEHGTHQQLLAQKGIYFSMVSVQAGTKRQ
# measurementDescription: Biosimilar mucus transport study of R123 in Caco-2 transwells
# Format: in vitro ADME
measureName: Papp B→A at 5 µM (×10⁻⁶ cm/s)
The answer is to be given in ×10⁻⁶ cm/s; state only the numeric part.

The recorded Papp B→A at 5 µM for COC(=O)c1ccccc1-c1c2ccc(=N)cc-2oc2cc(N)ccc12 [R123, rhodamine 123] is 9.25

====

# tgt: UniProt:P21447
# Sequence (P21447 whole entry): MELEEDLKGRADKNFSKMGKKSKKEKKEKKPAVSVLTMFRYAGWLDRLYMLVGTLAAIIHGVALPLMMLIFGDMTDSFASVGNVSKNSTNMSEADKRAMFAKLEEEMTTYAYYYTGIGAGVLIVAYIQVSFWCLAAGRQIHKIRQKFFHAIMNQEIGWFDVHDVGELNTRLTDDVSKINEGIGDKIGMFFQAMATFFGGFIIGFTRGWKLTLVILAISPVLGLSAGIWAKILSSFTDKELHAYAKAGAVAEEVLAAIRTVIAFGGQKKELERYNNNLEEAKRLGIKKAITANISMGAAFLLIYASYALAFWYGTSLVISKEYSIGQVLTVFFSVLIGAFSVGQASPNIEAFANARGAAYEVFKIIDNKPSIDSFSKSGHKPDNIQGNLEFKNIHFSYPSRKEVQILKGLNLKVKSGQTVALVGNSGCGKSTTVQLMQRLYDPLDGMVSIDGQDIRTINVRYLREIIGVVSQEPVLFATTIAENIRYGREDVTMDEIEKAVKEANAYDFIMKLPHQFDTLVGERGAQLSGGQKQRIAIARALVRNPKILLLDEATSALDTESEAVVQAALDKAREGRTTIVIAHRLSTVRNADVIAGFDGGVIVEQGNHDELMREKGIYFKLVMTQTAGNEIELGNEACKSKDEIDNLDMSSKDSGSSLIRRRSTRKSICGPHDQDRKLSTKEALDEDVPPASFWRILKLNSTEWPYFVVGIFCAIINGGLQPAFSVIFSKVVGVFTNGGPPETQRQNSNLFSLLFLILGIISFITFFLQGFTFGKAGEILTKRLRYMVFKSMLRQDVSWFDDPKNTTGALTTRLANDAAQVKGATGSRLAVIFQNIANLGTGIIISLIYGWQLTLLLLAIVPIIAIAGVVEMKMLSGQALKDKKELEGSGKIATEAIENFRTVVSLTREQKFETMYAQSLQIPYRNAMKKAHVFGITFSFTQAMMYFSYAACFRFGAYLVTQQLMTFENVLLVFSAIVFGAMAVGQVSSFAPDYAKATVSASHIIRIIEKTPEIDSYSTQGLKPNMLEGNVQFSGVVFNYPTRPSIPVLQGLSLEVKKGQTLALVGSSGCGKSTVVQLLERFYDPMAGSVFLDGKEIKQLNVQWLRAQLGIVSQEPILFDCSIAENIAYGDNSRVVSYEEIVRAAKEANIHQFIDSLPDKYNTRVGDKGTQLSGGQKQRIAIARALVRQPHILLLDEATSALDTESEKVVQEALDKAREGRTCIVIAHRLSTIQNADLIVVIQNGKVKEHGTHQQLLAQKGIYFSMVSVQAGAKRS
# measurementDescription: Ex vivo mouse jejunum intestinal sac, mucosal to serosal R123 transport
# Type: in vitro ADME, BALB/c mice
# experimentalContext: BALB/c, with microdevices, 3000 microdevices/cm^2
measureName: Papp at 5 µM (×10⁻⁶ cm/s)
The answer is to be given in ×10⁻⁶ cm/s; state only the numeric part.

The recorded Papp at 5 µM for COC(=O)c1ccccc1-c1c2ccc(=N)cc-2oc2cc(N)ccc12 is 0.35
